Listed next: entries and their corresponding IC50 cell viability.
# Test system: HCT116
# Setup conditions: 72 h; ICRF193 200 nM

CC(C)(Oc1ccc(C2CC2(Cl)Cl)cc1)C(=O)O (stereo not drawn) [Ciprofibrate]; > 45.8 µM
CCOC(=O)Oc1ccc(CCNC(=O)[C@H](CCSC)NC(C)=O)cc1OC(=O)OCC; > 45.8 µM
Cc1ccc(Cl)c(Nc2ccccc2C(=O)O)c1Cl [Meclofenamate sodium]; > 45.8 µM
Oc1ccc(CCNCCCCCCNCCc2ccccc2)cc1O; 18.3 µM

Report IC50 cell viability for COC(COC(N)=O)C1=C(N2CC2)C(=O)C(C)=C(N2CC2)C1=O (stereo not drawn) please.
> 45.8 µM

Now give it for `CN1CCN(C2=Nc3ccccc3Sc3ccc(Cl)cc32)CC1` too.
> 45.8 µM

Now give it for `CS(=O)(=O)c1ccc([C@@H](O)[C@@H](CF)NC(=O)C(Cl)Cl)cc1` too.
> 45.8 µM

Now give it for CC(=O)OCC(=O)[C@@]12OC(C)(C)O[C@@H]1C[C@H]1[C@@H]3C[C@H](F)C4=CC(=O)C=C[C@]4(C)[C@@]3(F)[C@@H](O)C[C@@]12C [Fluocinonide] too.
> 45.8 µM

* * *

# Tested on: HCT116
# Experiment summary: efficacy (maximum % inhibition of viability vs DMSO); higher = more cytotoxic
# Setup conditions: 72 h; ICRF193 200 nM
Listed next: entries and their corresponding efficacy.
Provide only the numeric value, understood in %.

CCCCCCCCCCCCCCCC[N+](C)(C)CCN(Cc1ccc(OC)cc1)c1ncccn1 [Thonzonium bromide]; 89.7
CN(C)[C@@H](CCOc1cccc2ccccc12)c1ccccc1 [Dapoxetine]; 70.9
Cc1c2oc3c(C)ccc(C(=O)N[C@@H]4C(=O)N[C@H](C(C)C)C(=O)N5CCC[C@H]5C(=O)N(C)CC(=O)N(C)[C@@H](C(C)C)C(=O)O[C@@H]4C)c3nc-2c(C(=O)N[C@@H]2C(=O)N[C@H](C(C)C)C(=O)N3CCC[C@H]3C(=O)N(C)CC(=O)N(C)[C@@H](C(C)C)C(=O)O[C@@H]2C)c(N)c1=O [Actinomycin D]; 79.3

Find the measured efficacy: item C=C1CC[C@H](O)C/C1=C/C=C1\CCC[C@]2(C)[C@@H]([C@H](C)/C=C/[C@H](C)C(C)C)CC[C@@H]12 [ERGOCALCIFEROL] , target or system HCT116.
56.2

Now give it for CC[C@H](C)C(=O)O[C@H]1C[C@@H](C)C=C2C=C[C@H](C)[C@H](CC[C@@H]3C[C@@H](O)CC(=O)O3)[C@H]21 [Lovastatin] too.
46.5

Now give it for Oc1cccc(O)c1 [Resorcinol] too.
46.8

* * *

# Test system: HCT116
# Setup conditions: 72 h; ICRF193 200 nM
Where a name gives a salt, the structure may show the parent alone.
Measurement kind: IC50 cell viability (µM)

A: O=C1[C@@H]2[C@H]3CC[C@H](C3)[C@@H]2C(=O)N1C[C@@H]1CCCC[C@H]1CN1CCN(c2nsc3ccccc23)CC1 [Lurasidone (Hydrochloride)]
B: COc1cccc2c1C(=O)c1c(O)c3c(c(O)c1C2=O)C[C@@](O)(C(=O)CO)C[C@@H]3O[C@H]1C[C@H](N)[C@@H](O)[C@H](C)O1 [Epirubicin hydrochloride]
C: C/C(O)=C(\C#N)C(=O)Nc1ccc(C(F)(F)F)cc1 [Teriflunomide]
List these items ordered by IC50 cell viability, big to small. Answer format: the labels, ordered as requested.
A, C, B
(A: 29.1 µM, C: 11.6 µM, B: 1.46 µM)
